The next entries give measured pIC50 for Protein kinase C alpha type (Homo sapiens, UniProt P17252).
pIC50: −log10 of the molar value.

Here's what some known entries look like.
COMPOUND SMILES	pIC50
Cc1ccc(NC(=O)c2ccccc2)cc1Nc1nccc(-c2ccc[n+]([O-])c2)n1	< 4.00
Cc1ccc(NC(=O)c2ccccc2)cc1Nc1nccc(-c2cccs2)n1	< 4.00

Then there is this molecule:
Query: With Protein kinase C alpha type (Homo sapiens, UniProt P17252) as the test system, provide measured pIC50 for this molecule: `Cc1ccc(C(=O)Nc2ccc(C)c(Nc3nccc(-c4cccnc4)n3)c2)cc1`
Reply: < 4.00

----------
Target: Platelet-derived growth factor receptor (Homo sapiens, UniProt P09619+P16234)
Experiment: Inhibition of tyrosine kinase(PDGF-R)
QUANTITY MEASURED: IC50

Here's what some known entries look like.
COMPOUND SMILES	IC50
Cc1ccc(N(C)C(=O)c2ccccc2)cc1Nc1nccc(-c2cccnc2)n1	> 100 µM
CNc1ccc(C)c(Nc2nccc(-c3cccnc3)n2)c1	> 10 µM
Cc1ccc(N(C(=O)c2ccccc2)C(=O)c2ccccc2)cc1Nc1nccc(-c2cccnc2)n1	2.5 µM
Cc1ccc(NC(=O)c2ccccc2)cc1Nc1nccc(-c2ccc[n+]([O-])c2)n1	> 10 µM

Then there is this compound:
Query: Given `Cc1ccc([N+](=O)[O-])cc1Nc1nccc(-c2cccnc2)n1` , respond with its IC50.
Reply: > 100 µM
